Tested on: Pseudomonas aeruginosa
Assay: Antibacterial activity against multidrug-resistant Pseudomonas aeruginosa ATCC BAA2108 after 18 hrs by Mueller-Hinton broth microdilution method
Assay type: functional
Settings: ATCC BAA2108, 18 h
Field: MIC. Provide a value for each of the compounds that follow.
Give bare numbers, in µg/mL.

State the recorded MIC for every item in the following list.
1. Cc1ccc(Nc2c3ccccc3[n+](C)c3c2[nH]c2ccccc23)cc1F.[I-]
2. COc1ccc(Nc2c3ccccc3[n+](C)c3c2[nH]c2ccccc23)cc1.[I-]
3. Cc1cc(F)ccc1Nc1c2ccccc2[n+](C)c2c1[nH]c1ccccc12.[I-]
4. COc1ccccc1Nc1c2ccccc2[n+](C)c2c1[nH]c1ccccc12.[I-]

result:
[64, 48, 64, 64]

State the recorded MIC for every item in the following list.
1. CCc1ccc(Nc2c3ccccc3[n+](C)c3c2[nH]c2ccccc23)cc1.[I-]
2. C[n+]1c2ccccc2c(Nc2ccc(Cl)cc2)c2[nH]c3ccccc3c21.[I-]

result:
[64, 64]

Cited source for all entries: ChEMBL document CHEMBL4052617
